- Test system: MS2 coat protein
- Procedure text: apparent KD of MS2 coat protein; designed switch direction (-1 OFF switch, 1 ON switch): -1; higher = weaker reporter binding
- Stated conditions: input ligand: FMN 200 uM

- Residue sequence: "CUGGUUGUCGAGGAUAUGCACCAGCUCACUGACGCAGAAGGCGACACAUGAGGAUCACCCAUGUCGGUUCGCGU [salish99_ex6_r004_436] (Eterna round: R97, puzzle: Exclusion 6)"
  Quantity unit: "nM"
  apparent KD of MS2 coat protein: 30.7
- Residue sequence: "UACACUGCAUGAGGAUCAAACAUGAGGAUCACCCAUGUAUAACAAGCUUUUUGCACGUCUUAUAAUUAUGUAGUGUA [Electric Eye 14 - Jieux - Sensor, turn-off variant 1] (Eterna round: R97, puzzle: Sensor, turn-off variant 1)"
  Quantity unit: "nM"
  apparent KD of MS2 coat protein: 15.3
- Residue sequence: "GCAAGCUUUUUCGUGGGUGACAUGAGGAUCACCCAUGUUUGCCACGUCUUGUGGGCCCGGGCCCGCGGCCCGGGCCC [-44.9, -65.2, A 12%] (Eterna round: R97, puzzle: Sensor, turn-off variant 1)"
  Quantity unit: "nM"
  apparent KD of MS2 coat protein: 54.6
- Residue sequence: "CUAAUACAUCAGGAUAUGUGUCGUGAUAGCGACACAGAAGGGAUGACAUGAGGAUCACCCAUGUCAAAGGGUGA [eternacac ex6r4 sub23] (Eterna round: R97, puzzle: Exclusion 6)"
  Quantity unit: "nM"
  apparent KD of MS2 coat protein: 388
- Residue sequence: "GCUAACCGAGGAUAUACAUGAGGAUCACCCAUGUUCGAUAUCCUCAUUAGAACUACAUGUAGAAGGCGGUAAGC [Eternabot (Original) Solution 2] (Eterna round: R97, puzzle: Exclusion 3)"
  Quantity unit: "nM"
  apparent KD of MS2 coat protein: 15.2
- Residue sequence: "GUUAACGCAGGAUAUUAGUACAUGUACAUGAGGAUCACCCAUGUUUAUUGGGUCUAAGAAUAAGAAGGGCGAUGAA [JR_Ex5_Sub006] (Eterna round: R97, puzzle: Exclusion 5)"
  Quantity unit: "nM"
  apparent KD of MS2 coat protein: 402
- Residue sequence: "CAGUACAGAGGAUAUACAUGAGGAUCACCCAUGUGUUCCAGCUAGGAGACUAGCAAGUGUAGAAGGCUGUACUG [Mat - Exclusion 3 - JL Mod - D8] (Eterna round: R97, puzzle: Exclusion 3)"
  Quantity unit: "nM"
  apparent KD of MS2 coat protein: 592
- Residue sequence: "CCCACAAGCUUUUUGCUCGACAUGAGGAUCACCCAUGUUGAAUGGGUUAUGUGUGUGUGAUACAUAUAUAUGGUCCU [-25.6, -50.5 kcal, A 23%] (Eterna round: R97, puzzle: Sensor, turn-off variant 1)"
  Quantity unit: "nM"
  apparent KD of MS2 coat protein: 201
- Residue sequence: "UGUUGUCGCGCAGGAUAUUGUCAACAGGCAGUAGGAUAUCCGAAAGGAGAAGGACCGCCAACAGGCGAGAAGGGCGGGACAACU [pwkr exNG2 2xF7 2xFMN.9] (Eterna round: R96, puzzle: Exclusion NG 2)"
  Quantity unit: "nM"
  apparent KD of MS2 coat protein: 32.1
- Residue sequence: "UCAUCCGUAGGAUAUAAGAAACACAACAUGAGGAUCACCCAUGUGACCGUCAGUUAUUGCUUAGAAGGACGCGUAC [Eternabot (L1) Solution 70] (Eterna round: R97, puzzle: Exclusion 5)"
  Quantity unit: "nM"
  apparent KD of MS2 coat protein: 131
- Residue sequence: "CUAACAUGCUGGUGAUCAUACAUGAGGAUCACCCAUGUAACAAGCUUUUUGUUCGUCUUAUAAGAUCACCAGCAUGU [Stov1/9-B3] (Eterna round: R97, puzzle: Sensor, turn-off variant 1)"
  Quantity unit: "nM"
  apparent KD of MS2 coat protein: 13.8
- Residue sequence: "ACAUGUUAUCCAUGAUAUCACAUGAGGAUCACCCAUGUUAUGGCGAUUUUGAGGUGUAAGUUUUGUGCUCGUCUUAU [JR_STOV1_Sub057] (Eterna round: R97, puzzle: Sensor, turn-off variant 1)"
  Quantity unit: "nM"
  apparent KD of MS2 coat protein: 80.1
- Residue sequence: "AAUUAUUUUUGAGGAUAUGGUGGUGAAACACCACCAGAAGGCGAGAUAAACAUGAGGAUCACCCAUGUGAGCCUGAUGCUUAUG [Ex NG1 #49] (Eterna round: R96, puzzle: Exclusion NG 1)"
  Quantity unit: "nM"
  apparent KD of MS2 coat protein: 29.2
- Residue sequence: "GAGCCACAUGAGGAUCACCCAUGUGAGGAUAUCAUGCUUCGUAGUAAACUACGAAGUGUGAGAAGGCACAAUGG [Omei Ex1 C5] (Eterna round: R97, puzzle: Exclusion 1)"
  Quantity unit: "nM"
  apparent KD of MS2 coat protein: 233
- Residue sequence: "AACUCACAUGAGGAUCACCCAUGUGAGGAUAUGGAUUCGCUGGCCGUAGCCAGUGGAUCCAGAAGGCGCAUGAU [JL-ex1-4.10] (Eterna round: R97, puzzle: Exclusion 1)"
  Quantity unit: "nM"
  apparent KD of MS2 coat protein: 23.1
- Residue sequence: "AGCAAGCAAUAGGAUAUGCCUGCAAGCUUGCAUGCAGAAGGAUUGACUUGAGGAUCACCCAAGUGGGCUCCUAA [Erbexe] (Eterna round: R97, puzzle: Exclusion 6)"
  Quantity unit: "nM"
  apparent KD of MS2 coat protein: 319
- Residue sequence: "UUUUAGCAAGCGAGAUCCCACAUGAGGAUCACCCAUGUGCAUCCAGAAUUACUGGGUGCAAAAGCUCGUCUUAUAUA [Winner reversed engineered] (Eterna round: R97, puzzle: Sensor, turn-off variant 1)"
  Quantity unit: "nM"
  apparent KD of MS2 coat protein: 54.9
- Residue sequence: "AUUUUGUCAGGAUAUGAGUAGUAGGACGAAAGUGUUAUUAUUUAGAAGGGACAUGAGGAUCACCCAUGUUCCUC [Bring Us a Shrubbery-03] (Eterna round: R96, puzzle: Exclusion 4)"
  Quantity unit: "nM"
  apparent KD of MS2 coat protein: 13.9
